Molecular target: GABAa receptor subtype
Test: Drug screening assay: displacement of 3H-Compound 1 from rat cortical tissue (novel GABAa receptor subtype)
Conditions: Table I; 0.5 nM 3H-Compound 1, rat cortical tissue, 20 min at 4° C., buffer with 1 uM Ro 15-1788 and 10 uM muscimol; Ki by Cheng Prusoff
Define the label as 1.0 when Ki is strictly less than 6 nM and as 0.0 in all remaining cases.

{"Cpd Smiles": "COc1cccc(-n2c(=O)c3c[nH]c4ccccc4n-3c2=O)c1", "Measured On": "GABAa receptor subtype", "Answer Label": 1.0}
{"Cpd Smiles": "CCCOc1ccc(-n2c(=O)c3c[nH]c4ccccc4n-3c2=O)cc1", "Measured On": "GABAa receptor subtype", "Answer Label": 1.0}
{"Cpd Smiles": "CCOC(=O)c1ncn2c1CN(C)C(=O)c1cc(F)ccc1-2", "Measured On": "GABAa receptor subtype", "Answer Label": 0.0}
{"Cpd Smiles": "CCOc1ccc(-n2c(=O)c3c[nH]c4cc(C)ccc4n-3c2=O)cc1", "Measured On": "GABAa receptor subtype", "Answer Label": 1.0}
{"Cpd Smiles": "CCOc1ccc(-n2c(=O)c3c[nH]c4ccccc4n-3c2=O)cc1", "Measured On": "GABAa receptor subtype", "Answer Label": 1.0}

# TODO verify Ki < 6 nM strictly for this molecule: `Cc1ccc(-c2nc3ccc(C)cn3c2CC(=O)N(C)C)cc1`
0.0

Hello, I'm reviewing records and need to know if Ki of `CN1C(=O)CN=C(c2ccccc2)c2cc(Cl)ccc21` is below 6 nM. Could you check?
0.0

Here's an entry: `COc1ccc(F)c(-c2ncc3[nH]c4c(c3n2)CCCC4)c1` . Is its Ki below 6 nM?
1.0

Please check: Ki for `Cc1nnc2n1-c1ccc(Cl)cc1C(c1ccccc1)=NC2` , strictly under 6 nM or not?
0.0

Lab log: compare recorded Ki with 6 nM; is it strictly lower for `CC(C)(C)OC(=O)c1ncn2c1[C@@H]1CCCN1C(=O)c1c(Br)cccc1-2` ?
0.0

Is it true that Ki reported for `COc1cccc(-c2ncc3[nH]c4c(c3n2)CCCC4)c1` is less than 6 nM?
0.0

Values from patent US5688654A
